Examples of binders with documented 100 nM Ag Bound (RU) follow.
Biological target: T1, mf TFRC ecto-mmh (REGN2054), monomeric monkey (cyno) Tfrc ectodomain with C-terminal myc-myc-hexahistidine tag (monkey (cyno), Macaca fascicularis, UniProt H9EXL1 89-760)
T1 construct: range 89-760; also called mfTfR-mmh; mfTFR-mmh
T1 sequence (chain, as listed by the source): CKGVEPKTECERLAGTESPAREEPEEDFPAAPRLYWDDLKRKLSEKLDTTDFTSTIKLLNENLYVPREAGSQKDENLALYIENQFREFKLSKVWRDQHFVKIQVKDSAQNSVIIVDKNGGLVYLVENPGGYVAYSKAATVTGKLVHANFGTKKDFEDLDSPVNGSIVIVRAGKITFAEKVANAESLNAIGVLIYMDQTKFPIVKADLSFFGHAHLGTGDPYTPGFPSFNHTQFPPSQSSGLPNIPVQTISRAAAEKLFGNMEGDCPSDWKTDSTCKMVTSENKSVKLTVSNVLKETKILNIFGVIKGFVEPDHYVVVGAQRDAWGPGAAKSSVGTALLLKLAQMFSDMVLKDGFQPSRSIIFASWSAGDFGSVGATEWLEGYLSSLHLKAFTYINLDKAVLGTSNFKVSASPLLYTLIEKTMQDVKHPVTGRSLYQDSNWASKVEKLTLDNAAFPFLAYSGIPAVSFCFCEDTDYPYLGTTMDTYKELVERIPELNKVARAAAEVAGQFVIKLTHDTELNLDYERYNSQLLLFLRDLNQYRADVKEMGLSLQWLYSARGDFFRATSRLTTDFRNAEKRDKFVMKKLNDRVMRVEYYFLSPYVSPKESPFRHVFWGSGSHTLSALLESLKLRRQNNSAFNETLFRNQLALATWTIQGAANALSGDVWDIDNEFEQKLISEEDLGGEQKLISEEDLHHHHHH
Experiment: SPR (Biacore), mAb captured on anti-human Fc, 100 nM mfTfR-mmh, 25 C

{"columns": ["binder", "value.unit", "100 nM Ag Bound (RU)"],
 "data": [
  ["69305 (antibody, human IgG1, kappa, V domains shown, Tested as bivalent human IgG1 from CHO primary supernatant) VH: QVQLVESGGGVVQPGRSLRLSCAASGFTFSSYGMHWVRQAPGKGLEWVAVIWYDGSNKYYADSVKGRFTISRDISKNTLYLQMNSLRAEDTAVYYCAGQLDLFFDYWGQGTLVTVSS VL: DIQMTQSPSSLSASVGDRVTITCRASQSIDRYLNWYRQKPGKAPKLLIYTTSSLQSGVPSRFSGSGSGTDFTLTLSSLQPEDFATYYCQQSYSPPLTFGGGTKVEIKR", "RU", -7],
  ["69332 (antibody, human IgG1, kappa, V domains shown, Tested as bivalent human IgG1 from CHO primary supernatant) VH: QVTLRESGPALVKPSQTLTLTCTFSGFSLNTYGMFVSWIRQPPGKALEWLAHIHWDDDKYYSTSLKTRLTISKDTSKNQVVLTMTNMDPVDTATYYCARGHNNLNYIIHWGQGTLVTVSS VL: AIQMTQSPSSLSASVGDRVTITCRASQGIRNDLGWYQQKPGKAPKLLIYAASTLQSGVPSRFSGSGSGTDFTLTISSLQPEDFATYYCLQDYNYPFTFGPGTKVDIKR", "RU", 1],
  ["12812B (antibody, human IgG1, kappa, V domains shown, Tested as bivalent human IgG1 from CHO primary supernatant) VH: QVQLVQSGAEVKKPGSSVRVSCKASRGTFSSYAISWVRQAPGQGLEWMGGIIPIFGTANYAQKFLARVTITADESTSTAYMELSSLRSEDTAVYYCAREKGWNYFDYWGQGTLVTVSS VL: DIQMTQSPPSVSASVGDRVTITCRASQGISSWLAWYQQKPGKAPKLLIYAASSLQSGVPSRFSGSGSGTDFTLTISSLQPEDFATYYCQQANSFPRTFGQGTKVEIKR", "RU", 1],
  ["69307 (antibody, human IgG1, kappa, V domains shown, Tested as bivalent human IgG1 from CHO primary supernatant) VH: EVQLVESGGGLVQPGGSLRLSCTASGFTFSNYWMTWVRQAPGKGLEWVANIKEDGSEKEYVDSVKGRFTISRDNAKNSLYLQMNSLRGEDTAVYYCARDGEQLVDYYYYYVMDVWGQGTTVTVSS VL: DIQMTQSPSSVSASVGDRVTITCRASQGISSWLAWYQQKPGKAPKLLIYAASSLQSGVPSRFSGSGSGTDFTLTISSLQPEDFATYYCQKADSLPYAFGQGTKLEIKR", "RU", 3]
]}
